Numbers sourced from PubChem BioAssay.

assay: CREB reporter modulators under forskolin, primary screen, cell-based, PC12, CRE-LacZ reporter, forskolin-stimulated (AID 1146); details: luminescence, 4.5 h, higher = more signal, called active from +8 up or from −8 down;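 further: PC12 cells with 6xCRE LacZ reporter stimulated by forskolin 10 µM; beta-galactosidase reporter signal reflecting CREB driven transcription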

{"molecule": "CCOC(=O)C1=C[C@@H](c2ccccc2)N(S(=O)(=O)c2ccc(C)cc2)[C@H]1c1cccc(Cl)c1", "z-score": -0.451}
{"molecule": "O=C(O)[C@H](Cc1ccccc1)n1cc(-c2ccccn2)nn1", "z-score": -0.377}
{"molecule": "O=C1OC[C@@H](c2ccccc2)N2CC(/C=C/c3ccccc3)=CC12 (stereo not given in full)", "z-score": -1.57}
{"molecule": "CC(CO)N1C(=O)[C@@H]2C3C(=O)OCCC/C=C\\[C@H]3OC23C=CCN(Cn2nnc4ccccc42)C(=O)[C@@H]13 (stereo not given in full)", "z-score": -0.691}
{"molecule": "C=C(C(=O)CC[C@H](OC(C)=O)c1cccc(OCCO)c1)C(C)C", "z-score": 1.04}

----------
biological target: Dihydroorotate dehydrogenase (quinone), mitochondrial (Plasmodium falciparum (isolate 3D7)) (UniProt Q08210); experiment: PfDHODH enzyme inhibitors, primary screen, biochemical, C-terminal His tag, absorbance 600 nm (AID 1175); conditions: DCIP absorbance 600 nm, higher = more signal, called active from +8 up or from −8 down;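 further: recombinant parasite enzyme with a five histidine tag at its C terminus; test concentration not given here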
Sequence (Q08210 whole entry, looked up): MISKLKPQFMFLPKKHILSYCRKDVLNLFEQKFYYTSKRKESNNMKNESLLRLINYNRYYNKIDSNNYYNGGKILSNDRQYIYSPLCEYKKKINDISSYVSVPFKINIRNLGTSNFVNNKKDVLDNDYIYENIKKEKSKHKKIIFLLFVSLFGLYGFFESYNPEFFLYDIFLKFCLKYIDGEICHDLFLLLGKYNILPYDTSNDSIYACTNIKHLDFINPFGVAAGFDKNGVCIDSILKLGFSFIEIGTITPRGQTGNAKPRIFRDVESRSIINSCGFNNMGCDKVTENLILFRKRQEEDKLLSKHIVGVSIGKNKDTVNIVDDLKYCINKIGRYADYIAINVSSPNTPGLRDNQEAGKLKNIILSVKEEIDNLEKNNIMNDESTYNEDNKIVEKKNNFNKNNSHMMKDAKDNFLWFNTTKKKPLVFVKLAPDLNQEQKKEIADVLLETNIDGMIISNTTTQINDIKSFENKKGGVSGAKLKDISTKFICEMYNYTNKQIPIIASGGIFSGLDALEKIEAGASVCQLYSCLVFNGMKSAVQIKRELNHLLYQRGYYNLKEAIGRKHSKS
Kindly return criterion met if reported composite z-score is no lower than -0.4; return criterion not met if it is lower.

{"compound": "CCCCC(CC)C(O)C1C=CC2C(=O)N(c3ccccc3)C(=O)C2N1Nc1ccc([N+](=O)[O-])cc1 (stereo not given)", "labelClass": "criterion met"}
{"compound": "Cc1ccc(S[C@]2(C(=O)NC(C)C)CC(=O)N(C3Cc4ccccc4C3)[C@@H]2c2ccc(CO)cc2I)cc1", "labelClass": "criterion not met"}
{"compound": "NC(=O)NCC#Cc1ccc2c(c1)[C@]1(C(=O)N2)[C@H](c2ccc(O)cc2)N2[C@H](c3ccccc3)[C@H](c3ccccc3)OC(=O)[C@H]2[C@@H]1C(=O)Nc1nc2ccccc2s1", "labelClass": "criterion not met"}
{"compound": "CN(C)C(=O)[C@]1(CCC(=O)OC(C)(C)C)N=C(c2ccc(OCCCO)cc2)O[C@@H]1c1ccccc1", "labelClass": "criterion met"}
{"compound": "C=C(COC)/C(=C/C[C@@H](OC(=O)c1ccncc1)c1ccc(OCCO)cc1)c1cnc2ccccc2c1", "labelClass": "criterion not met"}
{"compound": "C=CCN1Cc2ccccc2C[C@@]2(N=C(c3ccc(OCCCO)cc3)O[C@H]2c2ccccc2)C1=O", "labelClass": "criterion met"}
{"compound": "O=C1NC(=O)C2C1C=CC(C(O)c1ccc3c(c1)OCO3)N2Nc1ccccn1 (stereo not given)", "labelClass": "criterion met"}
{"compound": "CCOC(=O)C[C@H]1[C@H](OC(=O)c2ccccc2-c2ccccc2)[C@@H](NC(=O)c2ccc3ccccc3n2)c2cc(OCCCO)ccc2N1C(=O)c1ccc2ccccc2n1", "labelClass": "criterion not met"}
{"compound": "CCCc1cccc(=O)o1", "labelClass": "criterion not met"}
{"compound": "C=C(C(=O)CC[C@H](OC(=O)c1cccnc1)c1ccc(CO)o1)C(C)C", "labelClass": "criterion not met"}

----------
assay: fission yeast growth modulation, primary screen, strain 972, OD600, 24 h, no modulator (AID 1090);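 further: basal condition with compound alone and no growth modifier present; test concentration not given here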; settings: S. pombe 972 growth, called active from +8 up or from −8 down
Activity calls are given as the source filed them.
Outcome codes: YES (active), NO (inactive)

{"compound": "Cc1ccc(F)cc1S(=O)(=O)N[C@@H]1CCN(Cc2ccc(Oc3ccccc3)cc2)C1", "labelClass": "YES"}
{"compound": "O=C(CS)NCCCCCCNC(=O)[C@H]1C[C@H]2C(=O)N[C@@H](Cc3ccccc3)C(=O)N2[C@H]1c1cccc(OCCO)c1", "labelClass": "NO"}
{"compound": "O=C1c2ccccc2[C@](Cc2ccccc2I)(C(=O)NCc2ccccc2)[C@H](c2ccc(CO)cc2)N1C1CCCCC1", "labelClass": "NO"}
{"compound": "CCCC[C@@H]1C[C@H]1[C@@H](NC(=O)c1ccccc1)c1ccc(Cl)cc1", "labelClass": "NO"}
{"compound": "C=CCOC(=O)[C@@H]1[C@H]2C(=O)O[C@H](c3ccccc3)[C@H](c3ccccc3)N2[C@H](c2ccc(OCCOC(=O)[C@H]3C[C@H]4C(=O)N[C@@H](CCCCN(C)C)C(=O)N4[C@H]3c3cccc(OCCO)c3)cc2)[C@@]12C(=O)Nc1ccc(I)cc12", "labelClass": "NO"}
{"compound": "C=CC[C@]1(C(=O)N(C)C)N=C(c2ccc(OCCCO)cc2)O[C@H]1c1ccccc1N=[N+]=[N-]", "labelClass": "NO"}
{"compound": "CC(CO)N1C(=O)[C@@H]2C3C(=O)OCCC/C=C\\[C@H]3OC23C=CCN(Cn2nnc4ccccc42)C(=O)[C@@H]13 (some centres not stated)", "labelClass": "NO"}
{"compound": "CCOC(=O)C[C@H]1[C@H](OC(=O)c2ccc(-c3ccccc3)cc2)[C@@H](NC(=O)c2ccc3ccccc3c2)c2cc(OCCCO)ccc2N1C(=O)c1ccc2ccccc2n1", "labelClass": "NO"}
{"compound": "CC=CC(O)C1C=CC2C(=O)N(C)C(=O)C2N1Nc1ccc([N+](=O)[O-])cc1[N+](=O)[O-] (configuration not stated)", "labelClass": "NO"}
{"compound": "COCC(=C=CC[C@H](O)c1cccc(OCCO)c1)C[C@H](O)c1ccccn1", "labelClass": "NO"}
{"compound": "COC(=O)[C@@]1(Cc2ccccc2)[C@H]2c3cc(C(=O)N4CCCC4)[nH]c3C[C@H]2CN1C(=O)c1ccccc1", "labelClass": "NO"}
{"compound": "CN(C)C(=O)[C@]1(CCC(=O)OC(C)(C)C)N=C(c2ccc(OCCCO)cc2)O[C@@H]1c1ccccc1", "labelClass": "NO"}
{"compound": "O=C1O[C@@H](c2ccccc2)[C@@H](c2ccccc2)N2[C@@H](c3ccc(O)cc3)[C@]3(C(=O)Nc4ccc(C#CCCO)cc43)[C@@H](C(=O)Nc3nc4ccccc4s3)[C@H]12", "labelClass": "NO"}
{"compound": "CCOC(=O)C[C@H]1[C@H](OC(=O)c2ccc(-c3ccccc3)cc2)[C@@H](NC(=O)c2ccc3ccccc3n2)c2cc(OCCCO)ccc2N1C(=O)c1ccccc1", "labelClass": "NO"}
{"compound": "O=C(NC1CC1)[C@@H]1c2ccccc2C(=O)N(Cc2ccccc2)[C@H]1c1ccc(CO)cc1", "labelClass": "NO"}
{"compound": "COCCOC(=O)N1C(=O)[C@@]2(c3cc(C#CC4=CCCCC4)ccc31)[C@H](C(=O)N1CCN(c3ncccn3)CC1)[C@H]1C(=O)O[C@H](c3ccccc3)[C@H](c3ccccc3)N1[C@@H]2c1ccc(O)cc1", "labelClass": "NO"}
{"compound": "C[C@]12C(=O)N(CCCCCCO)[C@@H]3C(=O)N(c4ccc(Cl)cc4)CC=CC31O[C@@H]1/C=C\\CCCOC(=O)C12 (some centres not stated)", "labelClass": "NO"}
